Biological target: T1, PE9413, C-terminal biotinylated peptide mapping on Exon6 of the SCF molecule (SCF248) (C-terminal biotin)
T1 construct: also called C-terminal biotinylated PE9413; C-ter PE9413
T1 peptide: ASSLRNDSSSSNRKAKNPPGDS
Test: yeast-displayed scFv, flow cytometry titration of biotinylated peptide
Measure: Kd

A64P scFv displayed on yeast (scFv, V domains shown, Aga2-anchored, VH-VL orientation; not shown: linker; SV5 tag) VH: QVQLVQSGAELKKPGSSVKISCKSSGYAFSSNWMNWVKQRPGQGLEWIGQIYPEDGDTHYNGKFKGKATLTADKSTSTAYMELSSLTSEDSAVYFCSSSNWVGSYWGQGTLVTVSS VL: DVVMTQSPLSLPVTLGQPASISCKSSQSLLEEDGNTYLNWLQQRPGQSPRRLIYLVNRLDDGVPDRFSGSGSGTDFTLKISRVEAEDVGVYYCWQGTDLPQTFGGGTKVEIK : 3.29 nM
G104P scFv displayed on yeast (scFv, V domains shown, Aga2-anchored, VH-VL orientation; not shown: linker; SV5 tag) VH: QVQLVQSGAELKKPGSSVKISCKSSGYAFSSQWMNWVKQRPGQGLEWIGQIYPGDGDTHMNGKFKGKATLTADKSTSTAYMELSSLTSEDSAVYFCSSSNWVGSYWGQGTLVTVSS VL: DVVMTQSPLSLPVTLGQPASISCKSSQSLLEEDGNTYLNWLQQRPGQSPRRLIYLVDRLDDGVPDRFSGSGSGTDFTLKISRVEAEDVGVYYCWQGTDLPQTFGGGTKVEIK : 7.09 nM
